Origin of values: patent US10414740B2

Biological target: glutaminase (GAC) (Homo sapiens, UniProt O94925)
Sequence (O94925 55-598 isoform O94925-3 limits assumed): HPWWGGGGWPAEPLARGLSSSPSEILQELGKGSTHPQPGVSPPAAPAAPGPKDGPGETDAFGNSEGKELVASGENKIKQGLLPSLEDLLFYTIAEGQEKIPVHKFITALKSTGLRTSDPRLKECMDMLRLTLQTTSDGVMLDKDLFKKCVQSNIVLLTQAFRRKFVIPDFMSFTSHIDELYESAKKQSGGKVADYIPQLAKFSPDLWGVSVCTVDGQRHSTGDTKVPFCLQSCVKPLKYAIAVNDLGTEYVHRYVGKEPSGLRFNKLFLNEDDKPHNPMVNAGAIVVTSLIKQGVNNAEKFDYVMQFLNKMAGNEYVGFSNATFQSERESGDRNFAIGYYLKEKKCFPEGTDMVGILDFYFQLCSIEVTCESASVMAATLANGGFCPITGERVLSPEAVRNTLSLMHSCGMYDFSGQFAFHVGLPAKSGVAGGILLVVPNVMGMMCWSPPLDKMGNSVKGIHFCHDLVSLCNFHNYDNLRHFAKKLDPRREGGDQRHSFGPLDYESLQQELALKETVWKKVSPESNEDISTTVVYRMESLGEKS
pIC50: −log10 of the molar value.
Reported pIC50 is given for each of the following molecules.

Look over these answered cases.
INSERT INTO results (molecule, result_value) VALUES
  ('O=C(CCc1cccnc1)Nc1nnc(CCCCc2nnc(NC(=O)CCc3cccnc3)s2)s1', '6.00 to 6.30'),
  ('O=C(C/C=C/c1ccccc1)Nc1nnc(CCCCc2nnc(NC(=O)C/C=C/c3ccccc3)s2)s1', '6.30 to 7.00'),
  ('O=C(CCCC1CCCCC1)Nc1nnc(CCCCc2nnc(NC(=O)CCCC3CCCCC3)s2)s1', '6.00 to 6.30'),
  ('Cc1ccc(C)c(OCC(=O)Nc2nnc(CCCCc3nnc(NC(=O)COc4cc(C)ccc4C)s3)s2)c1', '5.00 to 6.00'),
  ('O=C(Cc1ccccn1)Nc1nnc(CCCCc2nnc(NC(=O)Cc3ccccn3)s2)s1', '> 7.00');

Item O=C(Cc1ccc(Cl)nc1)Nc1nnc(CCCCc2nnc(NC(=O)Cc3ccc(Cl)nc3)s2)s1 with glutaminase (GAC) (Homo sapiens, UniProt O94925) - pIC50? 6.00 to 6.30

Please answer likewise for O=C(Nc1nnc(CCSCCc2nnc(NC(=O)Oc3ccccc3)s2)s1)Oc1ccccc1 5.00 to 6.00

Please answer likewise for O=C(Nc1nnc(CCCCc2nnc(NC(=O)C3CC=CC3)s2)s1)C1CC=CC1 6.30 to 7.00

Please answer likewise for CC(CC(=O)c1ccccc1)C(=O)Nc1nnc(CCCCc2nnc(NC(=O)C(C)CC(=O)c3ccccc3)s2)s1 (stereo not shown) 6.30 to 7.00

Please answer likewise for COc1cc(CCC(=O)Nc2nnc(CCCCc3nnc(NC(=O)CCc4cc(OC)c(OC)c(OC)c4)s3)s2)cc(OC)c1OC 6.00 to 6.30

Please answer likewise for O=C(CC1OC(=O)c2ccccc21)Nc1nnc(CCCCc2nnc(NC(=O)CC3OC(=O)c4ccccc43)s2)s1 (stereo not shown) 6.30 to 7.00

Please answer likewise for O=C(Cc1c[nH]c2cccnc12)Nc1nnc(CCCCc2nnc(NC(=O)Cc3c[nH]c4cccnc34)s2)s1 > 7.00

Please answer likewise for O=C(Nc1nnc(CCSCCc2nnc(NC(=O)OC3CCCCC3)s2)s1)OC1CCCCC1 6.00 to 6.30

---

target: glutaminase (GAC) (Homo sapiens, UniProt O94925)
pIC50: −log10 of the molar value.
Parameter: pIC50

INSERT INTO results (molecule, result_value) VALUES
  ('CC(=O)NCCC(=O)Nc1nnc(CCCCc2nnc(NC(=O)CCNC(C)=O)s2)s1 [Compound 68]', '5.00 to 6.00'),
  ('O=C(CCc1ccccc1)Nc1nnc(CCCCCc2nnc(NC(=O)CCc3ccccc3)s2)s1 [Compound 20]', '5.00 to 6.00'),
  ('O=C(Cc1ccccc1)Nc1nnc(CC[S+]([O-])CCC(=O)Nc2nnc(Cc3ccccc3)s2)s1 (stereo not shown) [Compound 24]', '5.00 to 6.00'),
  ('CC(C)COC(=O)Nc1nnc(CCS(=O)(=O)CCc2nnc(NC(=O)OCC(C)C)s2)s1 [Compound 22]', '6.30 to 7.00'),
  ('COc1ccc(CC(=O)Nc2nnc(CCCCc3nnc(NC(=O)Cc4ccc(OC)cc4OC)s3)s2)c(OC)c1 [Compound 119]', '> 7.00'),
  ('O=C(Nc1nnc(CCCCc2nnc(NC(=O)C3CCCC3)s2)s1)C1CCCC1 [Compound 95]', '6.00 to 6.30'),
  ('Cc1cc(CC(=O)Nc2nnc(CCCCc3nnc(NC(=O)Cc4cc(C)no4)s3)s2)on1 [Compound 42]', '6.30 to 7.00'),
  ('O=C(CC1CCCCC1)Nc1nnc(CCCCc2nnc(NC(=O)CC3CCCCC3)s2)s1 [Compound 121]', '6.30 to 7.00');

Fill blank: measured pIC50 of the molecule CC(C)(Oc1ccc(Cl)cc1)C(=O)Nc1nnc(CCCCc2nnc(NC(=O)C(C)(C)Oc3ccc(Cl)cc3)s2)s1 [Compound 109] is ____. 5.00 to 6.00

Please answer likewise for O=C(Cc1cccnc1)Nc1nnc(CCCc2nnc(NC(=O)Cc3cccnc3)s2)s1 [Compound 26] 6.30 to 7.00

Please answer likewise for O=C(Cc1ccccc1)Nc1nnc(CCS(=O)(=O)Cc2nnc(NC(=O)Cc3ccccc3)s2)s1 [Compound 56] 6.30 to 7.00

Please answer likewise for Cn1nc(CC(=O)Nc2nnc(CCCCc3nnc(NC(=O)Cc4nn(C)c5ccccc45)s3)s2)c2ccccc21 [Compound 122] > 7.00

Please answer likewise for Cc1nc2ccc(C(=O)Nc3nnc(CCSCCc4nnc(NC(=O)c5ccc6nc(C)[nH]c6c5)s4)s3)cc2[nH]1 [Compound 34] > 7.00

Please answer likewise for Cn1cc(CC(=O)Nc2nnc(CCCCc3nnc(NC(=O)Cc4cn(C)c5ccccc45)s3)s2)c2ccccc21 [Compound 130] > 7.00

Please answer likewise for O=C(Nc1nnc(CCS(=O)(=O)CCc2nnc(NC(=O)OCc3ccccc3)s2)s1)OCc1ccccc1 [Compound 19] > 7.00

Please answer likewise for COc1ccc(CC(=O)Nc2nnc(CCS(=O)(=O)CCc3nnc(NC(=O)Cc4ccc(OC)cc4)s3)s2)cc1 [Compound 31] > 7.00

---

Reported pIC50 is given for each of the following compounds.
Target: glutaminase (GAC) (Homo sapiens, UniProt O94925)
Sequence (O94925 55-598 isoform O94925-3 limits assumed): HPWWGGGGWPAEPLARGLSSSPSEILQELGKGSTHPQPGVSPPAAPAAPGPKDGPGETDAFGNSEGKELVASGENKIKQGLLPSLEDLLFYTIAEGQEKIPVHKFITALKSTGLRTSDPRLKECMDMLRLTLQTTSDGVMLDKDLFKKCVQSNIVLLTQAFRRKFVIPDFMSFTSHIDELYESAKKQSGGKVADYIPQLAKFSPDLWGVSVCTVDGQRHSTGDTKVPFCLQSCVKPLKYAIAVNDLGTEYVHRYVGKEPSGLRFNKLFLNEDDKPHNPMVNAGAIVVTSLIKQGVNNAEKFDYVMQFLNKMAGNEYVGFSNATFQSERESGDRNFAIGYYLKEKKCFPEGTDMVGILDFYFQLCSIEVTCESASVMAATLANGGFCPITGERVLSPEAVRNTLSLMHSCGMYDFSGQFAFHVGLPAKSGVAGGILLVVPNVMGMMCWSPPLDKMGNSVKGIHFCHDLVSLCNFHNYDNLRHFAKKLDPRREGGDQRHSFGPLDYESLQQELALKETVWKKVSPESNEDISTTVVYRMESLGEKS
Experiment: glutaminase coupled endpoint assay (Example A)
Type: biochemical
Conditions: inhibition of glutaminase; IC50 tested in an assay of Example A or Example B
pIC50: −log10 of the molar value.

Item c1ccc(CCNc2nnc(CCSCCc3nnc(NCCc4ccccc4)s3)s2)cc1 with glutaminase (GAC) (Homo sapiens, UniProt O94925) - pIC50? 5.00 to 6.00

Please answer likewise for COc1ccc(CC(=O)Nc2nnc(CCS(=O)(=O)CCc3nnc(NC(=O)Cc4ccc(OC)c(OC)c4)s3)s2)cc1OC > 7.00

Please answer likewise for O=C(Cc1c[nH]c2cnccc12)Nc1nnc(CCCCc2nnc(NC(=O)Cc3c[nH]c4cnccc34)s2)s1 > 7.00

Please answer likewise for CC(C)(C(=O)Nc1nnc(CCCCc2nnc(NC(=O)C(C)(C)c3ccccc3)s2)s1)c1ccccc1 6.00 to 6.30

---

Target: glutaminase (GAC) (Homo sapiens, UniProt O94925)
Sequence (O94925 55-598 isoform O94925-3 limits assumed): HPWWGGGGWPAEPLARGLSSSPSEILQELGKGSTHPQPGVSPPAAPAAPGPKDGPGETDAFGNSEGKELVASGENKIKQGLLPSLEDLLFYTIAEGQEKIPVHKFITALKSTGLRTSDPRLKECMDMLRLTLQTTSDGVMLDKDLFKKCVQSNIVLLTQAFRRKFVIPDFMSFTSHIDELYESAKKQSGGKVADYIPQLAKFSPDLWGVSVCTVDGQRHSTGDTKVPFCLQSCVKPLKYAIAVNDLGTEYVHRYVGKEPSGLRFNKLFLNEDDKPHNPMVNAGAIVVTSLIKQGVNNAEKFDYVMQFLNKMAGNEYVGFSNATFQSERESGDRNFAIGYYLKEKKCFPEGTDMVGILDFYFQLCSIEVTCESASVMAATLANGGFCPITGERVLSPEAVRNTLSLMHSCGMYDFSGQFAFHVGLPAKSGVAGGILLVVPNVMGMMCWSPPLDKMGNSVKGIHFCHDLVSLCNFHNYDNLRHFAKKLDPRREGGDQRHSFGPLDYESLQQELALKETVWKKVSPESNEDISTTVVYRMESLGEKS
Reported IC50 is given for each of the following compounds.

Look over these answered cases.
INSERT INTO results (smiles_notation, result_value) VALUES
  ('CC(=O)Oc1cccc(C(=O)Nc2nnc(CCCCc3nnc(NC(=O)c4cccc(OC(C)=O)c4C)s3)s2)c1C', '1000 to 10000 nM'),
  ('O=C(Cc1cccc2[nH]ccc12)Nc1nnc(CCCCc2nnc(NC(=O)Cc3cccc4[nH]ccc34)s2)s1', '< 100 nM'),
  ('Cc1cccc(OCC(=O)Nc2nnc(CCCCc3nnc(NC(=O)COc4cccc(C)c4)s3)s2)c1', '1000 to 10000 nM');

Turning now to a further compound:
Fill blank: measured IC50 of the compound O=C(CCCc1ccccc1)Nc1nnc(CCCCc2nnc(NC(=O)CCCc3ccccc3)s2)s1 is ____. 100 to 500 nM
